Target: CaM (Bos taurus)
Construct: made in house; host or cells: E. coli BL21 (DE3)
Assay: Pull-down assay with immobilized protein and LSM libraries
Format: binding, bovine
Conditions: H12 library; 1:2 stoichiometry assumed; read-out: Surface mapping KD (apparent)
Procedure: Pull-down assays with immobilized test proteins and foldameric LSM libraries were carried out. Proteins were equilibrated with LSM probes, and equilibrium bound fractions (FB) were determined from the unbound fractions measured by HPLC-MS methods. Hits were corrected with background binding of the resin. […] MS data analysis. […] Using these processing setups, all raw data files were reprocessed together and analyzed. […]
pKd: −log10 of the molar value.
measured-property: pKd

a. C[C@@H](O)[C@@H](CC(=O)N[C@H]1CCC[C@@H]1C(=O)N[C@H]1CCC[C@@H]1C(=O)N[C@@H](CCC(N)=O)CC(=O)N[C@H]1CCC[C@@H]1C(=O)N[C@H]1CCC[C@@H]1C(N)=O)NC(=O)[C@H]1CCC[C@@H]1NC(=O)[C@H]1CCC[C@@H]1N
b. CC[C@H](C)[C@@H](CC(=O)N[C@H]1CCC[C@@H]1C(=O)N[C@H]1CCC[C@@H]1C(=O)N[C@H](CC(=O)N[C@H]1CCC[C@@H]1C(=O)N[C@H]1CCC[C@@H]1C(N)=O)Cc1ccccc1)NC(=O)[C@H]1CCC[C@@H]1NC(=O)[C@H]1CCC[C@@H]1N
Lab log: flag the item ( a or b ) with the smaller pKd figure. Choose, then provide that item's label.
a
(a: 3.35, b: 4.55)
